reportedEndpoint: melting point (°C)

# smi, reportedEndpoint, censorSymbol, reportedMeasurement
records = [
    ("COc1ccc(Cc2nc(S)[nH]c2Cc2ccc(OC)cc2)cc1", "melting point", "=", 270),
    ("CCOc1ccc2nc3[nH]c(=O)[nH]c3cc2c1", "melting point", ">", 320),
    ("CC1(C)Cc2cc(OCC(=O)O)c(Cl)c(Cl)c2C1=O", "melting point", "=", 182),
]

---

The entries below are paired with their reported melting point.
reportedEndpoint: melting point

# compound, reportedMeasurement
records = [
    ("CN1CCN(c2cccc3ccc(NC(=O)c4ccc(O)cc4)cc23)CC1", "156 to 160 °C"),
    ("COc1ccc(NC(=O)N(C)C)cc1", "126 to 130 °C"),
    ("Cc1cccc(-c2[nH]c(C(C)C)nc2-c2cccc(-c3cccc(S(N)(=O)=O)c3)c2)n1", "123 to 126 °C"),
    ("O=C(O)/C=C/c1ccnc(-c2nc(=O)c3ccccc3s2)c1", "284 to 285 °C"),
    ("CCCc1nccn1N=Cc1cc(C(C)(C)C)c(O)c(C(C)(C)C)c1", "160 to 161 °C"),
    ("CCc1cc2c(s1)C(C(=O)O)CC2=O (stereo not given)", "128 to 132 °C"),
    ("CCOC(=O)C1CN(C)c2nc(Cl)ncc2C1=O (stereo not given)", "175 °C"),
    ("NC(=O)c1ccccc1N1CCOCC1", "112 to 119 °C"),
    ("CCc1cc(NC(=O)c2nnn(Cc3ccc(OC)cc3)n2)c(O)c(C(C)=O)c1", "159 to 160 °C"),
    ("Cc1cc(C)c(NC(=S)C2(C)CCc3c(C)c(O)c(C)c(C)c3O2)cc1C (stereo not given)", "124 to 125 °C"),
    ("CC(C)(C)NC(=O)[C@@H]1C[C@H](Cl)CN1C(=O)[C@@H](O)[C@H](Cc1ccccc1)NC(=O)[C@H](CC(N)=O)NC(=O)OCc1ccccc1", "103 to 107 °C"),
    ("CC1=C(C#N)C(C)(c2ccccc2)C(C#N)=C(C)N1", "195 to 196 °C"),
    ("N#Cc1c(N2CCN(C(=O)c3ccco3)CC2)c2cc(F)cnc2[nH]c1=O", "312 °C"),
    ("COc1ccc(NC(=O)c2ccc(COc3ccc4c(c3)CCC(CCN3CCCCC3)C4)cc2)cc1OC (stereo not given)", "178 to 180 °C"),
    ("CC(C)(C)Cc1c(CC(C)(C)C(=O)O)n(Cc2ccc(Cl)cc2)c2ccc(OCc3ccc4occc4n3)cc12", "172 to 173 °C"),
    ("CCNc1c(C(=O)OCC)c(C)nc(OCC)c1[N+](=O)[O-]", "40 to 42 °C"),
    ("CCC1Cc2cc(N)ccc2C1=O (stereo not given)", "106 to 108 °C"),
    ("COc1cc(N2CCN(C)CC2)ccc1Nc1ncc2cc3ccccc3n2n1", "150 to 153 °C"),
    ("C[C@@H]1O[C@](/C=C/C2CC2)(C(F)(F)F)c2cc(Cl)ccc2NC1=O (relative stereo)", "171 to 172 °C"),
    ("NC(=O)CC12CC3CC(CC(C3)C1)C2", "174 °C"),
    ("C=CCSc1ccc(-c2nc3cnncc3[nH]2)c(OC)c1", "240 °C"),
    ("CS(=O)c1nc(-c2ccc([N+](=O)[O-])cc2)c[nH]1 (stereo not given)", "220 to 222 °C"),
    ("COC(=O)c1nn(C)nc1C(=O)OC", "86 to 87 °C"),
    ("O=C1N(Cc2ncccc2C(F)(F)F)c2ccccc2C12COc1ccc3nonc3c12 (stereo not given)", "212 to 215 °C"),
    ("NC(=O)C1=NN(c2cccc(COc3ccccc3)c2)C(c2ccccc2F)N1 (stereo not given)", "176 to 178 °C"),
    ("Cc1c(F)cccc1C(=O)Nc1ccc(C(=O)N2Cc3ccnn3Cc3ccccc32)cc1", "245 to 250 °C"),
    ("COC(=O)c1nc(-c2ccc(Cl)c(OC)c2F)cc(N)c1C", "122 to 125 °C"),
    ("COCc1cc(C(O)CNCCCCCCOCCCc2ccccc2)ccc1O (stereo not given)", "68 to 70 °C"),
    ("CCOC(=O)Nc1ccc(CN2OCC(C)(C)C2=O)c(Cl)c1", "162 to 164 °C"),
    ("CCCCCCC#Cc1ccc(C=C(C(=O)O)C(=O)O)s1", "106 °C"),
    ("N#Cc1ccc(NC(=O)c2ccccc2SSc2ccccc2C(=O)Nc2ccc(C#N)cc2)cc1", "239 to 241 °C"),
    ("CC(=O)NNC(=O)NC1c2ccccc2Oc2ccccc21", "226 to 228 °C"),
    ("COc1cc2nc(-c3cccs3)cc(C(=O)O)c2cc1OC", "260 to 263 °C"),
    ("CC(=O)NC(C(=O)NCc1ccccc1)c1cn(S(=O)(=O)N(C)C)cn1 (stereo not given)", "145 to 147 °C"),
    ("COc1cc(OC)nc(Sc2nccc(-c3cccc(Cl)c3)c2C(=O)NS(C)(=O)=O)n1", "54 to 58 °C"),
]

// provenance: a melting point compilation (Tetko et al.; mined from patent text by program, amines drawn as free bases though some values may be those of a salt)
